# system.name: T1, human CLL1 ECD-His (human CLL1 extracellular domain with His tag) (human, UniProt Q5QGZ9 65-265)
# T1 construct: also called antigen human CLL1 ECD-His; antigen CLL1; not shown: His tag
# T1 sequence: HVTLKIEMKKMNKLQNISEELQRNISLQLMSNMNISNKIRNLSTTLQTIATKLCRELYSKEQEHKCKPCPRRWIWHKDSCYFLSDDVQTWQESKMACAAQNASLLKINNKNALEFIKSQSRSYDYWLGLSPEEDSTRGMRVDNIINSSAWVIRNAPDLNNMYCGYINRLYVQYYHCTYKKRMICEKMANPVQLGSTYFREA
# protocol.notes: BLI (ForteBio), antibody on AHC sensor, 100 nM human CLL1 ECD-His, 1:1 model
# Description: In short, the antibody was loaded on the anti-human IgG capture (AHC) biosensor, the sensor was equilibrated in the assay buffer for 30 min offline, and monitored online for 60 s to establish the baseline; the antibody-loaded sensor was incubated with the 100 nM antigen human CLL1 ECD-His for 5 min, then transferred to the assay buffer, and the dissociation rate was measured after 5 min; the kinetic analysis was carried out using a 1:1 combination model.
Catalogue of pKd values
Keep in mind that pKd stands for -log10 of concentration in molar terms.

Sample records with pKd:
chimeric antibody ch19C1 (antibody, V domains shown) VH: QVQLQQSGAELMKPGASVKISCKATGYTFSSYWIEWVKQRPGHGLEWIGEIFPGSGSIKYNEKFKGKATFTADTSSNTAYMQLSSLTSEDSAVHYCARGGTYNDYSLFDYWGQGTTLTVSS VL: QIVLTQSPAIMSASPGEKVTMTCSASSSVSYMYWYQQKPGSSPRLLIFDTSNLASGVPVRFSGSGSGTSYSLTISRMEAEDAATYYCQQWSSYPLTFGAGTKLELK
7.96
chimeric antibody ch23D7 (antibody, V domains shown) VH: QVQLQQPGSDLVRPGASVKLSCKASGYTFTRYWMHWVKQRPGHGLEWIGYIYPGSGTSNYDEKFKSKATLTVDTSSSTAYMQLSSLTSEDSAVYYCTREARYTMDYWGQGTSVTVSS VL: QIVLTQSPAIMSASPGEKVTMTCSASSSVSYIYWYQQKPGSSPGLLIYDTSNLASGVPVRFSGSGSGTSYSLTISRMEAEDAATYYCQQWSSFPPTFGAGTKLELK
8.66
anti-human CLL-1 control antibody 1075.7 (antibody, it was captured by anti-human IgG sensors and detected with anti-human IgG-Fc, so a human Fc was present; also called ch1075.7) scFv: ENVLTQSPAIMSASPGEKVTMTCRASSNVISSYVHWYQQRSGASPKLWIYSTSNLASGVPARFSGSGSGTSYSLTISSVEAEDAATYYCQQYSGYPLTFGAGTKLELGGGGSGGGGSGGGGSDIQLQESGPGLVKPSQSLSLTCSVTGYSITSAYYWNWIRQFPGNKLEWMGYISYDGRNNYNPSLKNRISITRDTSKNQFFLKLNSVTTEDTATYYCAKEGDYDVGNYYAMDYWGQGTSVTVSS
9.38

Name the recorded pKd for chimeric antibody ch27H4 (antibody, V domains shown, also called parent antibody) VH: EVQLQQSGPELVKPGASVKISCKASGYSFTGYHMHWVKQSHVKSLEWIGRINPYNGAASHNQKFKDKATLTVDKSSSTAYMELHSLTSEDSAVYYCARGWDYDGGYYAMDYWGQGTSVTVSS VL: DIVMSQSPSSLAVSVGEKVTMSCKSSQSLLYSDNQKNYLAWYQQKPGQSPKLLIYWASTRESGVPDRFTGSGSGTDFTLTISSVKAEDLAVYYCQQYYTYPYTFGGGTKLEIK .
8.42
